target: COUP transcription factor 2 (Homo sapiens); assay: Luminescence-based cell-based high throughput dose response assay to identify inhibitors of COUP-TFII (NR2F2).; format: functional;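 also: HEK293 cells transiently cotransfected with COUP-TFII expression vector and reporter; luciferase reporter luminescence driven by COUP-TFII from the pX2-168 reporter plasmid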
Sequence (P24468 whole entry): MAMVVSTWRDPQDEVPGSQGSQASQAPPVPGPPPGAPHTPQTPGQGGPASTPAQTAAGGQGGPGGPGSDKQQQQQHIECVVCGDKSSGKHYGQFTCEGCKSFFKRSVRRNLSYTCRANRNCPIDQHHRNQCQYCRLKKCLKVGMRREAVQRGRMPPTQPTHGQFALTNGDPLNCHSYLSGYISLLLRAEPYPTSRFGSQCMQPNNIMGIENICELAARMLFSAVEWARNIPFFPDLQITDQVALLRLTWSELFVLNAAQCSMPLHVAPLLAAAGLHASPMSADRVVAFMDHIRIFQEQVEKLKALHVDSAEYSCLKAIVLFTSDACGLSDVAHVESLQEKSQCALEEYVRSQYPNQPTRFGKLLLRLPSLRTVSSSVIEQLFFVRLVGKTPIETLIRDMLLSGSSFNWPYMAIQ
The source made the active and inactive calls.

smiles repr	IC50
CC(C)(C)c1ccc(/C=N/Nc2ccc(C(=O)O)cc2)cc1	> 9.49 µM (active)
COc1ccc2c(c1)[nH]c1c(N3CCN(Cc4ccc5c(c4)OCO5)CC3)ncnc12	6.68 µM (active)
O=C(c1ccccc1)C1CCN(c2ncnc3sccc23)CC1	5.71 µM (active)
Cc1cc2c(=Cc3ccc(N(C)C)cc3)c3ccccc3n2[n+]1C	3.87 µM (active)

---

Biological target: Histone-lysine N-methyltransferase NSD2 (Homo sapiens)
Sequence (O96028 whole entry): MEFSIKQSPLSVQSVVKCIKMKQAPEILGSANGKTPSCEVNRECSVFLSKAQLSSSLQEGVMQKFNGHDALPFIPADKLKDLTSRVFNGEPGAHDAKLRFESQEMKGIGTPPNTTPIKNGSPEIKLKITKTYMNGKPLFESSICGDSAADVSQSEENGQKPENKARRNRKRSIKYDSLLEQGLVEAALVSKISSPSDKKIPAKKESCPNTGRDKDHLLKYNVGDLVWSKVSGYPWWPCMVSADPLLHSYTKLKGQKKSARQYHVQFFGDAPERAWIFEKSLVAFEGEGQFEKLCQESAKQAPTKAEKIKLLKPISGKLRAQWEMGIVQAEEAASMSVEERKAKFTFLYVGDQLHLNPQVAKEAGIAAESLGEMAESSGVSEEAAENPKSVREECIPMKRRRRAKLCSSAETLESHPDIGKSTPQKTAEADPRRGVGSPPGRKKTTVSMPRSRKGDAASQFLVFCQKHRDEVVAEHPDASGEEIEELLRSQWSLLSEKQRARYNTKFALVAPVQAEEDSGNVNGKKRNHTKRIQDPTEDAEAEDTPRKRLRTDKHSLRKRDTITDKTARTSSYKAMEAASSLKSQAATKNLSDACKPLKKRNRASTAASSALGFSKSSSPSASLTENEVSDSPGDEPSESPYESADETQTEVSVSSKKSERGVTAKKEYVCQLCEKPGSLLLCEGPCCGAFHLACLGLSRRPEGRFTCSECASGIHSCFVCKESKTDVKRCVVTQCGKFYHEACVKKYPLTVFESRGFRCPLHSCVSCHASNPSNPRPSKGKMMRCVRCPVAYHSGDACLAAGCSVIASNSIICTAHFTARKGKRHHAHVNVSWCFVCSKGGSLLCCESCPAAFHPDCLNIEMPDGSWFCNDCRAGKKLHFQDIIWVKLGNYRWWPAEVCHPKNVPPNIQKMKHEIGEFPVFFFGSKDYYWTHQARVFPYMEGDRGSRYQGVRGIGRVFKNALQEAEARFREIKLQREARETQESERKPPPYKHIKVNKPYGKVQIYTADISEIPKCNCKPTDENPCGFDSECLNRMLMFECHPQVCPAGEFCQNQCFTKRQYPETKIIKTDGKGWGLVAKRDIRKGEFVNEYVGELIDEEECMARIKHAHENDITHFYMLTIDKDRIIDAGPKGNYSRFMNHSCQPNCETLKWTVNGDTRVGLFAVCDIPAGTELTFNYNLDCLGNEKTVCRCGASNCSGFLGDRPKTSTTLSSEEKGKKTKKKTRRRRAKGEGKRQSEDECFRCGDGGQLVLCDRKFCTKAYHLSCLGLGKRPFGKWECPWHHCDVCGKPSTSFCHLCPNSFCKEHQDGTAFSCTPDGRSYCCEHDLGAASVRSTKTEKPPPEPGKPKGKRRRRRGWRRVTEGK
Assay type: biochemical
Calls of active or inactive are those of the source.
Outcome codes: TRUE for active, FALSE for inactive

molecule	group
CCOC(=O)C1=C(C)N=c2s/c(=C/c3cccc([N+](=O)[O-])c3O)c(=O)n2C1c1ccccc1 (centres undefined)	FALSE
Cc1cc2c(=Cc3ccc(N(C)C)cc3)c3ccccc3n2[n+]1C	TRUE
CC1C/C(=C\c2cccnc2)C(=O)/C(=C/c2cccnc2)C1 (centres undefined)	TRUE
NC(=O)C1CCN(C2=C(NS(=O)(=O)c3ccc(Cl)cc3)C(=O)c3ccccc3C2=O)CC1	TRUE
O=C(O)c1cccc(NC2=C(Cl)C(=O)c3ccccc3C2=O)c1	TRUE
N=C1/C(=C\c2ccc(Br)o2)C(=O)N=C2SC(CC(=O)N3CCOCC3)=NN12	FALSE
CCCN(CCC)CCCN=C(S)Nc1ccc2nc(N3CCN(CC)CC3)cc(C)c2c1	FALSE
CCN1CCCCC(=N/O)/C(=N/O)CCCC1	FALSE
O=C1CCN2C=Nc3cccc4ccc1c2c34	TRUE

---

target: Heat shock protein HSP 90-alpha (Homo sapiens); assay type: functional, organism-based
Active and inactive are the calls of the source.

compound	AC50
COc1cccc2c1C(=O)c1c(O)c3c(c(O)c1C2=O)CC(O)(C(=O)CO)CC3OC1CC(N(C)C)C(O)C(C)O1 (configuration not stated)	0.296 µM (active)
O=[N+]([O-])c1cccc(SSc2cccc([N+](=O)[O-])c2)c1	4.25 µM (active)
C=CC(C)(C)c1c(O)c(CC=C(C)C)c(O)c2c(=O)c3ccc(O)c(O)c3oc12 [GERONTOXANTHONE I]	8.03 µM (active)
CCCc1cc(=O)oc2cc(OCc3ccc(C(=O)O)cc3)ccc12	3.75 µM (active)
O=C1C=C(c2cccs2)C[C@H](c2ccccc2)[C@H]1n1nnc([N+](=O)[O-])n1	7.95 µM (active)
CSc1nc2cc(Cl)c(Oc3cccc(Cl)c3Cl)cc2[nH]1 [TRICLABENDAZOLE]	4.25 µM (active)
O=c1[nH]c(-c2ccccn2)nc(C(F)(F)F)c1Br	4.03 µM (active)
CC(C)C1Nc2c(O)cc(Cl)c([N+](=O)[O-])c2C2C=CCC21 (configuration not stated)	8.49 µM (active)
Oc1ccc2ccccc2c1/C=N/Nc1nnc(-c2ncc[nH]2)c2ccccc12	3.53 µM (active)
O=C(N/N=C/c1sc2ccccc2c1O)c1ccccc1	1.02 µM (active)
CC(=NNc1nc2ccccc2o1)c1cc2ccccc2cn1	16.9 µM (active)
O=C(Oc1c(Cl)cc(Cl)c2cccnc12)c1cccs1	3.28 µM (active)

---

assay: NIH-3T3 fibroblast cytotoxicity, dose response, cytotoxicity control, cell-based, fluorescence, Alamar Blue, secondary assay (AID 2327); assay type: functional;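 also: NIH-3T3 mouse fibroblasts cultured with fluconazole at 8 µg/mL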
Activity calls are given as the source filed them.
measure name: EC50

smiles repr	recorded result
CN1C(=O)/C(=C\C(=O)c2cccs2)c2ccccc21	> 150 µM (inconclusive)
CC(C)CC(=O)NC(=S)NNC(=O)c1ccc(NC(=O)C2CCCCC2)cc1	43.7 µM (active)
O=c1c2cc(Br)ccc2nc(-c2ccc([N+](=O)[O-])cc2)n1O	> 150 µM (inactive)
O=S(=O)(O)c1cc(O)c2c(O)c(N=Nc3cc(Cl)ccc3O)c(S(=O)(=O)O)cc2c1	> 150 µM (inactive)
O=C(O)/C=C/c1ccc(S(=O)(=O)Nc2ccc(C(=O)NCC(=O)O)cc2)cc1	> 160 µM (inconclusive)

---

molecular target: ATP-dependent molecular chaperone HSP82 (Candida albicans (strain WO-1) (Yeast)); assay: loss of DOC-induced GRE-beta-galactosidase reporter signal, dose response, Hsp90 inhibitor project, S. cerevisiae, luminescence (AID 2400); assay type: functional, cell-based;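 also: beta-galactosidase luminescence from glucocorticoid response element reporter as proxy for Hsp90 function; inhibitor potency where signal loss means Hsp90 inhibition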
Sequence (C4YTQ8 whole entry): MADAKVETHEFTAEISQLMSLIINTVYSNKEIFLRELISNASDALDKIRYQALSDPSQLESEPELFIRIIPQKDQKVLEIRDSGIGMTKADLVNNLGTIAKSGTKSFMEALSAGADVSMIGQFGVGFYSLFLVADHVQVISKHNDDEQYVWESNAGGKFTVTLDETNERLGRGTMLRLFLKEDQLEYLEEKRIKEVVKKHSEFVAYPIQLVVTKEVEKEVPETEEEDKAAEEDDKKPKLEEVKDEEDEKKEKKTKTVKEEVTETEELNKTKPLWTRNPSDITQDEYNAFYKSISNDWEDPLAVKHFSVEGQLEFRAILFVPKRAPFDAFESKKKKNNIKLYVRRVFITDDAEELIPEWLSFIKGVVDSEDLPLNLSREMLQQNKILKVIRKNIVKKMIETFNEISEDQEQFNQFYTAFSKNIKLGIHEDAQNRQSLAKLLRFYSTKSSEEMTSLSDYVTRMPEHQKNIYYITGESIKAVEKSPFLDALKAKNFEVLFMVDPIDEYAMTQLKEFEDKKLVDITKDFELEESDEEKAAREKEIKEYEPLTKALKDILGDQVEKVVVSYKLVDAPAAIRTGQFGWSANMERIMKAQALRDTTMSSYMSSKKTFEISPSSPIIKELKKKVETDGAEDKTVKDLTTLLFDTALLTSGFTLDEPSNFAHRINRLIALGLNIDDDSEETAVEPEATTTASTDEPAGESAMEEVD
Calls of active or inactive are those of the source.
Outcome codes: yes (1) (active), no (0) (inactive)

smiles repr	group
O=c1c2cc(Br)ccc2nc(-c2ccc([N+](=O)[O-])cc2)n1O	yes (1)
CCOc1ccc(N=Nc2ccc(O)c3ncccc23)cc1	no (0)
O=C(Oc1c(Cl)cc(Cl)c2cccnc12)c1cccs1	yes (1)
O=c1[nH]c(-c2ccccn2)nc(C(F)(F)F)c1Br	yes (1)
Oc1ccc2ccccc2c1/C=N/Nc1nnc(-c2ncc[nH]2)c2ccccc12	yes (1)

---

experiment: inhibitors of intracellular T. cruzi replication, confirmation, NIH3T3 host cells, beta-gal luminescence (AID 2044); assay type: functional, cell-based;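 also: intracellular parasites grown in NIH/3T3 mouse fibroblasts as host cells; luminescent beta-galactosidase reporter signal from transgenic T. cruzi replicating inside host cells; inhibitors lower the luminescence signal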
Calls of active or inactive are those of the source.

compound	EC50
O=C(CSc1nnc(COc2ccc(Cl)cc2)o1)N1c2ccccc2CCc2ccccc21	625 nM (active)
O=C(Oc1c(Cl)cc(Cl)c2cccnc12)c1cccs1	2410 nM (active)
Oc1nc(-c2ccccn2)nc(C(F)(F)F)c1Br	1860 nM (active)
Cc1cnccc1CN(C)Cc1cn(C)nc1-c1ccc(Oc2ccccc2)cc1	1760 nM (active)
CCCCCn1c(N2CCC(Cc3ccccc3)CC2)nc2c1c(=O)[nH]c(=O)n2C	971 nM (active)
CCOc1cccc(CN2CCCC(N3CCc4cc(OC)c(OC)cc4C3)C2)c1O (stereo not drawn)	< 100 nM (active)
CC(C)Oc1cccc(C(=O)C2CCCN(Cc3ccc(Oc4ncccn4)cc3)C2)c1 (stereo not drawn)	< 100 nM (active)
COc1ccc(OC)c(C2C=C(C34CC5CC(CC(C5)C3)C4)N=C(S)N2)c1 (stereo not drawn)	1150 nM (active)
O=C(c1ccc([N+](=O)[O-])o1)N1CCc2ccccc2C1	< 100 nM (active)
CCC[n+]1c2ccccc2cc2ccccc21	157 nM (active)
CC(=O)OCCCNc1cc(Sc2nc3ccccc3s2)c2nonc2c1[N+](=O)[O-]	1380 nM (active)
COc1ccc(C2=NN=C(Nc3cc(S(=O)(=O)N(C)C)ccc3C)SC2)c(OC)c1	3570 nM (active)
c1ccc(-c2nc(N3CCN(c4ccccc4)CC3)nc(-n3ccnc3)n2)cc1	3530 nM (active)
